Measured values drawn from patent US20110091971A1 for this set.

Quick reference for Sox 17 Intensity average among some molecules
Tested on: H1 or H9 human embryonic stem cells
EXPERIMENTAL PROTOCOL: Activin A bioassay: differentiation of human embryonic stem cells to definitive endoderm, cell number and SOX17 intensity by high content analysis (96-well, four days);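 further: total fluorescence of the cell multiplied by cell area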
Type: cell-based
PROTOCOL CONDITIONS: supernatant concentration 10x, assay dilution 1:20
# print the numeric value only

| MOLECULE | ASSAY READOUT | OBSERVED VALUE |
| --- | --- | --- |
| ACTN57: activin A variant peptide, SEQ ID 58 (protein) GLECDGKVNICCKKQSFGQAKDIGWNDWIIAPSGYHGGGCSGECPSHIAGTSGSSLSFHSTVINHYRMRGHSPWANLKSCCSPTKLRPMSMLYYDDGQNIIKKDIQNMKVEECGCT | Sox 17 Intensity average | 1.74E+06 |
| ACTN23: activin A variant peptide, SEQ ID 24 (protein) GLECDGKVNYCCKKQDFVSFKDIGWNDWIIAPSGYHANKCDGKCPSHIAGTSGSSLSFHSTVINHYRMRGHSPFSDMGSCCIPTKLRPMSMLYYDDGQNIIKKDIQNMIVEECGCS | Sox 17 Intensity average | 1.63E+05 |

## Input Param item = ACTN7: activin A variant peptide, SEQ ID 8 (protein) GLECDGKVNYCCKKQHFVSFKDIGWNDWIIAPSGYHANSCSGLCPSHIAGTSGSSLSFHSTVINHYRMRGHSPFSQMGSCCIPTKLRPMSMLYYDDGQNIIKKDIQNMIVEECGCS ; retrieve measured Sox 17 Intensity average.
## Output 1.904E+07
